Data provenance: the supplement of paper PMC11061612

Listing of entries alongside the reported combination Emax.
Tested on: WSU-DLCL2 (B-Cell Non-Hodgkin's Lymphoma)
assay_method_text: combination Emax (second highest fraction inhibited in the dose matrix, 72 h); higher = more inhibition; extreme values may be limits of the assay
metric_name: combination Emax

{"columns": ["compound", "value"],
 "data": [
  ["Cn1cnc2c(F)c(Nc3ccc(Br)cc3Cl)c(C(=O)NOCCO)cc21 [Selumetinib] + CCN(CCO)CCCOc1ccc2c(Nc3cc(CC(=O)Nc4cccc(F)c4)[nH]n3)ncnc2c1 [AZD2811] (first compound max 10 µM, 7x7, partner max 1 µM)", 0.127],
  ["CC(=O)c1c(C)c2cnc(Nc3ccc(N4CCNCC4)cn3)nc2n(C2CCCC2)c1=O [Palbociclib] + Cn1cnc2c(F)c(Nc3ccc(Br)cc3Cl)c(C(=O)NOCCO)cc21 [Selumetinib] (first compound max 10 µM, 7x7, partner max 10 µM)", 0.834],
  ["CCN(CCO)CCCOc1ccc2c(Nc3cc(CC(=O)Nc4cccc(F)c4)[nH]n3)ncnc2c1 [AZD2811] + O=C(c1cc(Cc2n[nH]c(=O)c3ccccc23)ccc1F)N1CCN(C(=O)C2CC2)CC1 [Olaparib] (first compound max 1 µM, 7x7, partner max 10 µM)", 0.273],
  ["CN(C)CCCOc1ccc(-c2ccc3ncc4c(c3c2)n(C2CCOCC2)c(=O)n4C)cn1 [AZD0156] + CCN(CCO)CCCOc1ccc2c(Nc3cc(CC(=O)Nc4cccc(F)c4)[nH]n3)ncnc2c1 [AZD2811] (first compound max 1 µM, 7x7, partner max 1 µM)", 0.359]
]}

###

System: WSU-DLCL2 (B-Cell Non-Hodgkin's Lymphoma)
assay_method_text: combination Emax (second highest fraction inhibited in the dose matrix, 72 h); higher = more inhibition; extreme values may be limits of the assay
Listing of entries alongside the reported combination Emax.

{"columns": ["molecule", "combination Emax"],
 "data": [
  ["CC1(C)CCC(CN2CCN(c3ccc(C(=O)NS(=O)(=O)c4ccc(NCC5CCOCC5)c([N+](=O)[O-])c4)c(Oc4cnc5[nH]ccc5c4)c3)CC2)=C(c2ccc(Cl)cc2)C1 [Venetoclax] + CS(=O)(=O)CCNCc1ccc(-c2ccc3ncnc(Nc4ccc(OCc5cccc(F)c5)c(Cl)c4)c3c2)o1 [Lapatinib] (first compound max 1 µM, 7x7, partner max 10 µM)", 0.798],
  ["Cc1c2c(nn1C)CSCc1cc(n(C)n1)CSc1cc(c3ccccc3c1)OCCCc1c(C(=O)O)n(C)c3c-2c(Cl)ccc13 [AZD5991] + CCN(CCO)CCCOc1ccc2c(Nc3cc(CC(=O)Nc4cccc(F)c4)[nH]n3)ncnc2c1 [AZD2811] (first compound max 1 µM, 7x7, partner max 1 µM)", 1],
  ["C=CCn1c(=O)c2cnc(Nc3ccc(N4CCN(C)CC4)cc3)nc2n1-c1cccc(C(C)(C)O)n1 [AZD1775] + C1CN(CCC1(C(=O)N[C@@H](CCO)C2=CC=C(C=C2)Cl)N)C3=NC=NC4=C3C=CN4 [Capivasertib] (first compound max 3 µM, partner max 3 µM)", 1]
]}

###

System: MCF7 (Breast Carcinoma)
assay_method_text: combination Emax (second highest fraction inhibited in the dose matrix, 72 h); higher = more inhibition; extreme values may be limits of the assay
Listing of entries alongside the reported combination Emax.

{"columns": ["compound", "combination Emax"],
 "data": [
  ["CN(C)CCCOc1ccc(-c2ccc3ncc4c(c3c2)n(C2CCOCC2)c(=O)n4C)cn1 [AZD0156] + CCN(CCO)CCCOc1ccc2c(Nc3cc(CC(=O)Nc4cccc(F)c4)[nH]n3)ncnc2c1 [AZD2811] (first compound max 1 µM, 7x7, partner max 1 µM)", 0.237],
  ["C[C@@H]1COCCN1c1cc(C2([S@](C)(=N)=O)CC2)nc(-c2ccnc3[nH]ccc23)n1 [AZD6738] + O=C(c1cc(Cc2n[nH]c(=O)c3ccccc23)ccc1F)N1CCN(C(=O)C2CC2)CC1 [Olaparib] (first compound max 10 µM, 7x7, partner max 10 µM)", 0.573],
  ["CN(CCO)CC[C@H](CSc1ccccc1)Nc1ccc(S(=O)(=O)NC(=O)c2ccc(N3CCC([C@@H](O)c4ccccc4-c4ccc(Cl)cc4)CC3)cc2)cc1S(=O)(=O)C(F)(F)F [AZD4320] + C[C@@H](Nc1cc(F)cc(F)c1)c1cc(C(=O)N(C)C)cc2c(=O)cc(N3CCOCC3)oc12 [AZD8186] (first compound max 1 µM, 7x7, partner max 3 µM)", 0.544],
  ["CC(=O)c1c(C)c2cnc(Nc3ccc(N4CCNCC4)cn3)nc2n(C2CCCC2)c1=O [Palbociclib] + Cc1c2c(nn1C)CSCc1cc(n(C)n1)CSc1cc(c3ccccc3c1)OCCCc1c(C(=O)O)n(C)c3c-2c(Cl)ccc13 [AZD5991] (first compound max 10 µM, 7x7, partner max 1 µM)", 0.574],
  ["Cc1c2c(nn1C)CSCc1cc(n(C)n1)CSc1cc(c3ccccc3c1)OCCCc1c(C(=O)O)n(C)c3c-2c(Cl)ccc13 [AZD5991] + Cn1cnc2c(F)c(Nc3ccc(Br)cc3Cl)c(C(=O)NOCCO)cc21 [Selumetinib] (first compound max 1 µM, 7x7, partner max 3 µM)", 0.559],
  ["COc1cc2c(cc1OCCCCCOc1cc3c(cc1OC)C(=O)N1C=C(C)C[C@H]1C=N3)N=C[C@@H]1CC(C)=CN1C2=O [SG3199] + O=C(c1cc(Cc2n[nH]c(=O)c3ccccc23)ccc1F)N1CCN(C(=O)C2CC2)CC1 [Olaparib] (first compound max 0.001 µM, 7x7, partner max 10 µM)", 0.106],
  ["COc1cccc(OCCCN)c1-c1cc(Nc2cnc(C#N)cn2)n[nH]1 [Prexasertib] + C[C@@H]1COCCN1C2=NC(=NC(=C2)C3(CC3)[S@](=N)(=O)C)C4=C5C=CNC5=NC=C4 [AZD6738] (first compound max 1 µM, 7x7, partner max 10 µM)", 0.703]
]}

###

Tested on: H4 (Low Grade Glioma)
assay_method_text: combination Emax (second highest fraction inhibited in the dose matrix, 72 h); higher = more inhibition; extreme values may be limits of the assay
Listing of entries alongside the reported combination Emax.

{"columns": ["molecule", "combination Emax"],
 "data": [
  ["Cc1c2c(nn1C)CSCc1cc(n(C)n1)CSc1cc(c3ccccc3c1)OCCCc1c(C(=O)O)n(C)c3c-2c(Cl)ccc13 [AZD5991] + CS(=O)(=O)CCNCc1ccc(-c2ccc3ncnc(Nc4ccc(OCc5cccc(F)c5)c(Cl)c4)c3c2)o1 [Lapatinib] (first compound max 1 µM, 7x7, partner max 10 µM)", 0.484],
  ["COc1cccc(OCCCN)c1-c1cc(Nc2cnc(C#N)cn2)n[nH]1 [Prexasertib] + O=C(c1cc(Cc2n[nH]c(=O)c3ccccc23)ccc1F)N1CCN(C(=O)C2CC2)CC1 [Olaparib] (first compound max 1 µM, 7x7, partner max 10 µM)", 0.845],
  ["Cc1cc2ncnn2cc1Nc1ncc2c(n1)n(C1CCOCC1)c(=O)n2C [AZD7648] + C=CCn1c(=O)c2cnc(Nc3ccc(N4CCN(C)CC4)cc3)nc2n1-c1cccc(C(C)(C)O)n1 [AZD1775] (first compound max 10 µM, partner max 1 µM)", 0.796]
]}

###

Test system: 647-V (Bladder Carcinoma)
assay_method_text: Bliss excess, mean over the matrix (fraction); higher = more synergy

{"columns": ["molecule", "Bliss excess"],
 "data": [
  ["Cc1c2c(nn1C)CSCc1cc(n(C)n1)CSc1cc(c3ccccc3c1)OCCCc1c(C(=O)O)n(C)c3c-2c(Cl)ccc13 [AZD5991] + C[C@@H]1COCCN1C2=NC(=NC(=C2)C3(CC3)[S@](=N)(=O)C)C4=C5C=CNC5=NC=C4 [AZD6738] (first compound max 1 µM, 7x7, partner max 10 µM)", 0.0802],
  ["Cn1cnc2c(F)c(Nc3ccc(Br)cc3Cl)c(C(=O)NOCCO)cc21 [Selumetinib] + C[C@@H]1COCCN1C2=NC(=NC(=C2)C3(CC3)[S@](=N)(=O)C)C4=C5C=CNC5=NC=C4 [AZD6738] (first compound max 10 µM, 7x7, partner max 10 µM)", 0.0218]
]}

###

System: NOMO-1 (Acute Myeloid Leukemia)
assay_method_text: Bliss excess, mean over the matrix (fraction); higher = more synergy

{"columns": ["compound", "Bliss excess"],
 "data": [
  ["COc1nnc2ccc(N3CCC(c4ccc(OCCN5CCN(C)C(=O)[C@H]5C)cc4)CC3)nn12 [AZD5153] + C[C@@H]1COCCN1C2=NC(=NC(=C2)C3(CC3)[S@](=N)(=O)C)C4=C5C=CNC5=NC=C4 [AZD6738] (first compound max 1 µM, 7x7, partner max 10 µM)", -0.0324],
  ["COc1nnc2ccc(N3CCC(c4ccc(OCCN5CCN(C)C(=O)[C@H]5C)cc4)CC3)nn12 [AZD5153] + Cn1cnc2c(F)c(Nc3ccc(Br)cc3Cl)c(C(=O)NOCCO)cc21 [Selumetinib] (first compound max 1 µM, 7x7, partner max 10 µM)", 0.0443],
  ["Cc1c2c(nn1C)CSCc1cc(n(C)n1)CSc1cc(c3ccccc3c1)OCCCc1c(C(=O)O)n(C)c3c-2c(Cl)ccc13 [AZD5991] + Cc1cc2ncnn2cc1Nc1ncc2c(n1)n(C1CCOCC1)c(=O)n2C [AZD7648] (first compound max 1 µM, 7x7, partner max 10 µM)", 0.0486],
  ["COc1cccc(OCCCN)c1-c1cc(Nc2cnc(C#N)cn2)n[nH]1 [Prexasertib] + Cc1cc2ncnn2cc1Nc1ncc2c(n1)n(C1CCOCC1)c(=O)n2C [AZD7648] (first compound max 1 µM, 7x7, partner max 10 µM)", -0.0388]
]}
